Test system: frog Estrogen Receptor (ER), gene 398734
Test: ATG_frER1_XSP2: Attagene TRANS-FACTORIAL Multi-Species (XSP2) HepG2 Assay for frog Estrogen Receptor (ER) (AID 2283821);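 also: hits raise reporter mRNA above DMSO baseline so potency means agonist or activator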
Inconclusive results are not listed. Activity calls are given as the source filed them. The calls were made as follows: active = hit-call score of the fitted dose curve at least 0.9, where 1 is the maximum; inconclusive = response in the unintended direction; inactive = score below 0.9.
Answer with one of the outcomes given here: active, inactive

Sample answers from the record:
| molecule | qualitative label |
| --- | --- |
| O=C(O)C(F)(F)C(F)(F)C(F)(F)C(F)(F)C(F)(F)C(F)(F)C(F)(F)F | inactive |
| CCCN(CCC)c1c([N+](=O)[O-])cc(C(F)(F)F)cc1[N+](=O)[O-] | inactive |
| CC1(C)C(C=C(Cl)Cl)C1C(=O)OC(C#N)c1ccc(F)c(Oc2ccccc2)c1 (stereo not given) | inactive |
| COP(=S)(OC)Oc1ccc(SC)c(C)c1 | active |

Next molecule, please.
How was O=S1OCC2C(CO1)C1(Cl)C(Cl)=C(Cl)C2(Cl)C1(Cl)Cl (stereo not given) classified in this test? inactive

* * *

Assay: Tanguay_ZF_120hpf_CIRC_legacy: (Legacy) Oregon State University Tanguay Lab 120 Hour Post-fertilization zebrafish Assay for Circulatory Malformation (AID 2283651)
Results filed as inconclusive are left out. Active and inactive are the calls of the source. How the source made its calls: active means hit-call score of the fitted dose curve at least 0.9, where 1 is the maximum; inconclusive means response in the unintended direction; inactive means score below 0.9.
property name: outcome

Check out these entries, answers already filled in.
| molecule | outcome |
| --- | --- |
| O=[N+]([O-])c1c(Cl)c(Cl)c(Cl)c(Cl)c1Cl | inactive |
| CCCN(CCC)c1c([N+](=O)[O-])cc(C(F)(F)F)cc1[N+](=O)[O-] | inactive |
| O=C(O)COc1ccc(Cl)cc1Cl | inactive |
| Clc1ccccc1-c1nnc(-c2ccccc2Cl)nn1 | inactive |
| Oc1cc(Cl)ccc1Oc1ccc(Cl)cc1Cl | inactive |
| O=[N+]([O-])/N=C1\NCCN1Cc1ccc(Cl)nc1 | inactive |
| Cc1[nH]c(=O)n(C(C)(C)C)c(=O)c1Cl | inactive |
| CCOCN(C(=O)CCl)c1c(C)cccc1CC | inactive |

The recorded outcome for O=C(O)C(F)(F)C(F)(F)C(F)(F)C(F)(F)C(F)(F)C(F)(F)C(F)(F)F is inactive

outcome for CNC(=O)CSP(=S)(OC)OC is inactive

// sample N#CN , its outcome was inactive

* * *

Read-out: Nuclear factor erythroid 2-related factor 2 (Homo sapiens)
Test: LTEA_HepaRG_NFE2L2: Life Technologies and Expression Analysis (LTEA) Assay for Nuclear factor erythroid 2-related factor 2 (NFE2L2) Transcription Factor using HepaRG (AID 2283527);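 also: TaqMan qRT-PCR transcript level normalised to ACTB GAPDH and POLR2A housekeeping genes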
Details: mRNA level, 48 h; actives raise or lower the signal
Procedure: LTEA_HepaRG is a cell based, multiplexed-readout assay that uses HepaRG, a human liver cell line, with measurements taken at 48 hours after chemical dosing on a 96-well plate.LTEA_HepaRG_NFE2L2 is one of 102 assay component(s) measured in the LTEA HepaRG cell culture assay. It is a marker of Inflammation/injury.Data from the assay component LTEA_HepaRG_NFE2L2 was analyzed into 1 endpoint. […]
Activity calls are given as the source filed them. Rule for the calls: active = hit-call score of the fitted dose curve at least 0.9, where 1 is the maximum; inactive = score below 0.9.
// one of 1 (active), 0 (inactive), no free text

Identify the outcome logged in this assay for the molecule shown: CCCN(CCC)c1c([N+](=O)[O-])cc(C(F)(F)F)cc1[N+](=O)[O-] 0

Hey, what did the test say about COP(=S)(OC)Oc1ccc([N+](=O)[O-])cc1 ? 0

* * *

Experiment: APR_HepG2_p53Act_72hr: Apredica 72-hour HepG2 Assay for p53 Activation (AID 2282923);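 also: average cellular p53 protein immunofluorescence intensity in HepG2 cells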
Settings: high-content imaging, actives raise or lower the signal
Calls of active or inactive are those of the source. The calls were made as follows: active = hit-call score of the fitted dose curve at least 0.9, where 1 is the maximum; inactive = score below 0.9.
Select the correct class. Options are active, inactive and nothing else.

Please review the following examples before continuing.
| compound | qualitative label |
| --- | --- |
| COc1nn(CSP(=S)(OC)OC)c(=O)s1 | inactive |
| O=[N+]([O-])c1c(Cl)c(Cl)c(Cl)c(Cl)c1Cl | inactive |
| COc1cc(OC)nc(NC(=O)NS(=O)(=O)c2cc(NC=O)ccc2C(=O)N(C)C)n1 | inactive |
| [2H]C1([2H])[n+]2ccccc2-c2cccc[n+]2C1([2H])[2H] | inactive |

Recorded test outcome, item CC1(c2ccc(Oc3ccccc3)cc2)OC(=O)N(Nc2ccccc2)C1=O (stereo not drawn) active

Write down the call the test reported for this compound. Item: O=C(O)COc1ccc(Cl)cc1Cl inactive

Write down the call the test reported for this compound. Item: C[C@H]1[C@H](c2ccc(Cl)cc2)SC(=O)N1C(=O)NC1CCCCC1 inactive

* * *

Read-out: ABC Transporter (ABCB11), ABCB11 (gene 8647)
Experiment: LTEA_HepaRG_ABCB11: Life Technologies and Expression Analysis (LTEA) Assay for ABC Transporter (ABCB11) using HepaRG (AID 2283463)
Details: mRNA level, 48 h; actives raise or lower the signal
Active and inactive are the calls of the source. Rule for the calls: active = hit-call score of the fitted dose curve at least 0.9, where 1 is the maximum; inactive = score below 0.9.
Allowed answers: active, inactive

Check out these entries, answers already filled in.
| compound | qualitative label |
| --- | --- |
| CNC(=O)Oc1ccccc1OC(C)C | inactive |
| CC1(c2ccc(Oc3ccccc3)cc2)OC(=O)N(Nc2ccccc2)C1=O (stereo unspecified) | active |
| COP(=S)(OC)Oc1ccc(SC)c(C)c1 | inactive |
| N#Cc1c(Cl)c(Cl)c(Cl)c(C#N)c1Cl | active |

Please share the test call associated with CCCN(CCOc1c(Cl)cc(Cl)cc1Cl)C(=O)n1ccnc1 . active

Per the assay record, what outcome was assigned to CCC(C)Nc1c([N+](=O)[O-])cc(C(C)(C)C)cc1[N+](=O)[O-] (stereo unspecified) ? inactive

* * *

Molecular target: Cellular tumor antigen p53 (Homo sapiens)
Assay: TOX21_p53_BLA_p5_ratio: Tox21 HCT-116 p53 Agonism Beta-lactamase Assay, Ratio, Phase 5 (AID 2283599)
Records with an inconclusive call do not appear. Calls of active or inactive are those of the source. Rule for the calls: active = hit-call score of the fitted dose curve at least 0.9, where 1 is the maximum; inconclusive = response in the unintended direction; inactive = score below 0.9.
Use one of these outcomes when replying: active, inactive

Sample answers from the record:
| compound | target or system | qualitative label |
| --- | --- | --- |
| O=[N+]([O-])c1c(Cl)c(Cl)c(Cl)c(Cl)c1Cl | Cellular tumor antigen p53 (Homo sapiens) | inactive |
| O=C(O)CCCOc1ccc(Cl)cc1Cl | Cellular tumor antigen p53 (Homo sapiens) | inactive |

Any idea what this test logged for CC1(c2ccc(Oc3ccccc3)cc2)OC(=O)N(Nc2ccccc2)C1=O (configuration not stated) ? active

Hi, do you know how COc1nn(CSP(=S)(OC)OC)c(=O)s1 came out in this test? inactive

Which outcome did this test record for the compound CNC(=O)Oc1cccc(N=CN(C)C)c1 ? inactive

Just curious, what result did C[C@H]1[C@H](c2ccc(Cl)cc2)SC(=O)N1C(=O)NC1CCCCC1 get here? inactive

Which result was noted for this compound in the test: COP(=S)(OC)Oc1ccc([N+](=O)[O-])cc1 inactive

* * *

Read-out: xenobiotic metabolism (CYP1A1), CYP1A1 (gene 1543)
Assay: CLD_CYP1A1_6hr: CellzDirect (CLD) Gene Expression Assay for xenobiotic metabolism (CYP1A1) at 6 hours (AID 2283661)
Inconclusive results are not listed. Calls of active or inactive are those of the source. How the source made its calls: active means hit-call score of the fitted dose curve at least 0.9, where 1 is the maximum; inconclusive means response in the unintended direction; inactive means score below 0.9.
The reply should name one outcome from TRUE (active), FALSE (inactive)

Below, 7 compounds whose answers are already recorded.
| compound | qualitative label |
| --- | --- |
| CCCN(CCOc1c(Cl)cc(Cl)cc1Cl)C(=O)n1ccnc1 | TRUE |
| CC(C)OC(=O)Nc1cccc(Cl)c1 | TRUE |
| COC(=O)c1ccccc1S(=O)(=O)NC(=O)Nc1nc(C)nc(OC)n1 | TRUE |
| C[C@H]1[C@H](c2ccc(Cl)cc2)SC(=O)N1C(=O)NC1CCCCC1 | FALSE |
| CC1(c2ccc(Oc3ccccc3)cc2)OC(=O)N(Nc2ccccc2)C1=O (stereo not drawn) | FALSE |
| Cc1[nH]c(=O)n(C(C)(C)C)c(=O)c1Cl | TRUE |
| COc1nn(CSP(=S)(OC)OC)c(=O)s1 | TRUE |

# ---- query compound ----
Assay result, entry O=[N+]([O-])c1c(Cl)c(Cl)c(Cl)c(Cl)c1Cl — outcome? FALSE

* * *

Molecular target: mouse Peroxisome Proliferator-activated Receptor gamma (PPARg), Pparg (gene 19016)
Assay: ATG_mPPARg_XSP2: Attagene TRANS-FACTORIAL Multi-Species (XSP2) HepG2 Assay for mouse Peroxisome Proliferator-activated Receptor gamma (PPARg) (AID 2283830);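 also: hits are gains in reporter mRNA above DMSO so AC50 marks activation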
Inconclusive results are not listed. Calls of active or inactive are those of the source. Rule for the calls: active = hit-call score of the fitted dose curve at least 0.9, where 1 is the maximum; inconclusive = response in the unintended direction; inactive = score below 0.9.
Permitted responses: active, inactive

Consider the worked cases shown below.
| compound | qualitative label |
| --- | --- |
| CCCN(CCC)c1c([N+](=O)[O-])cc(C(F)(F)F)cc1[N+](=O)[O-] | inactive |
| O=S(=O)(O)C(F)(F)C(F)(F)C(F)(F)C(F)(F)C(F)(F)C(F)(F)C(F)(F)C(F)(F)F | active |
| CCCN(CCOc1c(Cl)cc(Cl)cc1Cl)C(=O)n1ccnc1 | active |
| CCOCN(C(=O)CCl)c1c(C)cccc1CC | active |
| COP(=S)(OC)Oc1ccc(SC)c(C)c1 | active |

What was the test verdict on CC1(C)C(C=C(Cl)Cl)C1C(=O)OC(C#N)c1ccc(F)c(Oc2ccccc2)c1 (stereo unspecified) ? active
